- Tested on: K562 cells (chronic myeloid leukemia)
- TEST PROTOCOL: Cell viability of K562 cells, WST assay
- Assay type: cell-based, human
- COND: Homo sapiens, K562, 4 h, 0.1-5 μM
READOUT TYPE: IC50

>>> meas_value("Cn1nc2c(n1)-c1ccccc1C(=O)C2=O [Compound 191]")
"1000 to 2000 nM"
>>> meas_value("CC(C)c1nc2c(s1)C(=O)C(=O)c1ccccc1-2 [Compound 163]")
"2100 nM"
>>> meas_value("Cn1nnc2c1C(=O)C(=O)c1ccccc1-2 [Compound 192]")
"1000 to 2000 nM"

====

- Tested on: MCF7 (breast adenocarcinoma) cells
- TEST PROTOCOL: Cell viability of solid cancer cells, WST assay, MCF7
- Type: cell-based
- COND: Homo sapiens, 1-30 μM, 6 hours
- Excerpt: To investigate availability as a medicine for solid cancer, A549 cell line obtained from a -person with lung carcinoma, HeLa cell line obtained from a person with cervix adenocarcinoma, HepG2 cell line obtained from a child with hepatocellular carcinoma, MCF7 cell line obtained from a person with breast adenocarcinoma, and Beas-2B cell line obtained from normal lung for comparison with solid cancer cell line were used. […]
READOUT TYPE: IC50 (µM)

>>> meas_value("Cn1nc2c(n1)-c1ccccc1C(=O)C2=O [Compound 191]")
14.8
>>> meas_value("Cn1nnc2c1C(=O)C(=O)c1ccccc1-2 [Compound 192]")
11.7
>>> meas_value("CC(C)c1nc2c(s1)C(=O)C(=O)c1ccccc1-2 [Compound 163]")
13

====

- Test system: KG1α cells (refractory acute myeloid leukemia)
- TEST PROTOCOL: Cell viability of KG1α cells, WST assay
- Assay type: cell-based, human
- COND: Homo sapiens, KG-1, 24 h, 0.1-3 μM
pIC50: −log10 of the molar value.
READOUT TYPE: pIC50

>>> meas_value("CC(C)c1nc2c(s1)C(=O)C(=O)c1ccccc1-2")
"6.00 to 6.30"

====

- System: K562 cells (chronic myeloid leukemia)
- TEST PROTOCOL: Cell viability of K562 cells, WST assay
- Format: cell-based, human
- COND: 0.1-5 μM, 4 hours
Entries and their measured IC50 follow.
READOUT TYPE: IC50 (nM)

>>> meas_value("Cn1nnc2c1C(=O)C(=O)c1ccccc1-2")
1200
>>> meas_value("Cn1nc2c(n1)-c1ccccc1C(=O)C2=O")
1600
